# Assay details: in vitro
# Test conditions: African green monkey
Assay readout: CC50

* N#CCn1c(N2CC3(C2)CC(F)(F)C3)c(-c2ccc(F)c(Cl)c2)c(=O)n(-c2cncc(Cl)c2)c1=O | > 100 µM

----------
# Assay details: in vivo
# Test conditions: male, Sprague-Dawley, rat, iv
The entries below come with measured half-life values attached.
Assay readout: half-life (h)

- N#CCn1c(N2CC(O)(C(F)(F)F)C2)c(-c2ccc(F)c(Cl)c2)c(=O)n(-c2cncc(Cl)c2)c1=O: 6.89
- N#CCn1c(N2CC3(C2)CC(F)(F)C3)c(-c2ccc(F)c(Cl)c2)c(=O)n(-c2cncc(Cl)c2)c1=O: 8.14

----------
# Study target: Human Caspase 2 (Homo sapiens)
# Sequence (P42575 170-333): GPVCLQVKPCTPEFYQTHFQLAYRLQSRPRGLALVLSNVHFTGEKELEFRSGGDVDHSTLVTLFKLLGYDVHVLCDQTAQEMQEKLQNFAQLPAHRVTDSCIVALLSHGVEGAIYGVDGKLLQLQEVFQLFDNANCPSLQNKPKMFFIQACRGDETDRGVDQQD
# Sequence (P42575 348-452): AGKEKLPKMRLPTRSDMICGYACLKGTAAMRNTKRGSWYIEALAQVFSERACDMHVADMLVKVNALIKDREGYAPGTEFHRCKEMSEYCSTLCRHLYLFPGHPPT
Assay readout: IC50

- N#CCn1c(N2CC3(C2)CC(F)(F)C3)c(-c2ccc(F)c(Cl)c2)c(=O)n(-c2cncc(Cl)c2)c1=O: > 10 µM

----------
# Tested on: SARS-CoV
# Assay details: microbe, parasite or virus in culture
# Format: cell-based
# Test conditions: Severe acute respiratory syndrome coronavirus, VeroE6/TMPRSS2, read-out: EC50 SARS-CoV
pEC50: −log10 of the molar value.
Assay readout: pEC50

- N#CCn1c(N2CC3(C2)CC(F)(F)C3)c(-c2ccc(F)c(Cl)c2)c(=O)n(-c2cncc(Cl)c2)c1=O [Compound 17]: 8.18

----------
The entries below come with measured Papp B→A values attached.
# Study target: UniProt P08183
# Sequence (P08183 whole entry): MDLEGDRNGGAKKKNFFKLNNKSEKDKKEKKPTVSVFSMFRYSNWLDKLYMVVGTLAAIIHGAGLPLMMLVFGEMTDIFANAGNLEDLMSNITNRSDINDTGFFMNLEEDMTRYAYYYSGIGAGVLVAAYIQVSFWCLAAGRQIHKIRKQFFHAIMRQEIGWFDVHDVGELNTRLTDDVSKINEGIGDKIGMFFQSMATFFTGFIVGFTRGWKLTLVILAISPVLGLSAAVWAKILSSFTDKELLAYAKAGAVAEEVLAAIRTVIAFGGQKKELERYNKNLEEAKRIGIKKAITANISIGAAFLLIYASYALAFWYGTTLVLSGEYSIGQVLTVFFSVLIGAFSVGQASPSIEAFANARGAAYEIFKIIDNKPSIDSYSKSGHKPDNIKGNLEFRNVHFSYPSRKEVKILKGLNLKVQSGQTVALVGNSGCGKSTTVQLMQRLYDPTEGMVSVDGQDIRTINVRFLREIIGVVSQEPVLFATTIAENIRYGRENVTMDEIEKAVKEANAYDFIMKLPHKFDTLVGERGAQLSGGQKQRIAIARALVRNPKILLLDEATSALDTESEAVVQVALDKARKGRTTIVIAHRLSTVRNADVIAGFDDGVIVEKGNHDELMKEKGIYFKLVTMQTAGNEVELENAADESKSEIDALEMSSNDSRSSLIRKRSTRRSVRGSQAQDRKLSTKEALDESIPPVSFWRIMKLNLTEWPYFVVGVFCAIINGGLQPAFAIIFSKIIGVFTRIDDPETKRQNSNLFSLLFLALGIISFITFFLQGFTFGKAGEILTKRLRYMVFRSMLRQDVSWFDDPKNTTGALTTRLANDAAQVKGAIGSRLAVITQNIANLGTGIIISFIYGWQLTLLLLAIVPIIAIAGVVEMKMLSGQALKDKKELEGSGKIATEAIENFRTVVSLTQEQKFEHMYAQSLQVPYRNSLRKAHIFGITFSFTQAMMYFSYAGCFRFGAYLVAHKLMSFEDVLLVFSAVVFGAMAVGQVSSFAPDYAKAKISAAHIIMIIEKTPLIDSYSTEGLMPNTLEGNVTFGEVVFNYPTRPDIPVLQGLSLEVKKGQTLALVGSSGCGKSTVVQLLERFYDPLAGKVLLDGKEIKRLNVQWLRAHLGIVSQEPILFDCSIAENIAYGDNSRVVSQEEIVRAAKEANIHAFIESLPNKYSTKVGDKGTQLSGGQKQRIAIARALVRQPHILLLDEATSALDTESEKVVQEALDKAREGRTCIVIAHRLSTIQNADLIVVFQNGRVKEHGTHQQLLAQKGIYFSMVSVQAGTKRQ
# Assay details: in vitro
# Test conditions: LLC-PK1
Assay readout: Papp B→A (×10⁻⁶ cm/s)

* CC(C)(C)[C@H](NC(=O)C(F)(F)F)C(=O)N1C[C@H]2[C@@H]([C@H]1C(=O)N[C@H](C#N)C[C@@H]1CCNC1=O)C2(C)C [nirmatrelvir, reference compound] | 9.39
* N#CCn1c(N2CC3(C2)CC(F)(F)C3)c(-c2ccc(F)c(Cl)c2)c(=O)n(-c2cncc(Cl)c2)c1=O | 22.4

----------
# Study target: SARS-CoV-2 3CL^pro (Severe acute respiratory syndrome coronavirus 2)
# Assay details: biochemical
# Assay type: biochemical
pIC50: −log10 of the molar value.
Response key: Met means pIC50 >= 8; Not met means pIC50 < 8.

- Cc1cncc(-n2c(=O)c(Cc3cc(F)c(F)c(F)c3)c(N3CC4(C3)CC(F)(F)C4)n(CC#N)c2=O)c1: Met
- Cc1cncc(-n2c(=O)[nH]c(N3Cc4ccccc4C3)c(Cc3cc(F)c(F)c(F)c3)c2=O)c1: Not met
- N#CCn1c(N2CC(F)(F)C2)c(-c2ccc(F)c(Cl)c2)c(=O)n(-c2cncc(Cl)c2)c1=O: Met
- Cc1cncc(-n2c(=O)nc(N3Cc4ccccc4C3)n(Cc3cc(F)c(F)c(F)c3)c2=O)c1: Not met

----------
The entries below come with measured remaining at 0.5 h values attached.
# Assay details: in vitro
# Test conditions: both, human, microsomes
Assay readout: remaining at 0.5 h (%)

• Cc1cncc(-n2c(=O)c(Cc3cc(F)c(F)c(F)c3)c(N3Cc4ccccc4C3)n(CC#N)c2=O)c1 = 1
• N#CCn1c(N2CC(O)(C(F)(F)F)C2)c(-c2ccc(F)c(Cl)c2)c(=O)n(-c2cncc(Cl)c2)c1=O = 103
• Cc1cncc(-n2c(=O)c(Cc3cc(F)c(F)c(F)c3)c(N3CC4(CCOCC4)C3)n(CC#N)c2=O)c1 = 58
• N#CCn1c(N2CC3(CCOC3)C2)c(-c2ccccc2)c(=O)n(-c2cncc(Cl)c2)c1=O = 55
• Cc1cncc(-n2c(=O)[nH]c(N3Cc4ccccc4C3)c(Cc3cc(F)c(F)c(F)c3)c2=O)c1 = 45
• Cc1cncc(-n2c(=O)c(Cc3cc(F)c(F)c(F)c3)c(N3CCC(C(F)(F)F)CC3)n(CC#N)c2=O)c1 = 13
• N#CCn1c(N2CC3(CCOC3)C2)c(Cc2cc(F)c(F)c(F)c2)c(=O)n(-c2cncc(Cl)c2)c1=O = 17

----------
# Assay details: in vitro
# Test conditions: male, rat, microsomes
Assay readout: remaining at 0.5 h (%)

• Cc1cncc(-n2c(=O)c(Cc3cc(F)c(F)c(F)c3)c(N3CC4(CCOC4)C3)n(CC#N)c2=O)c1 = 81
• N#CCn1c(N2CC3(CCOC3)C2)c(-c2cccc(Cl)c2)c(=O)n(-c2cncc(Cl)c2)c1=O = 33
• Cc1cncc(-n2c(=O)nc(N3Cc4ccccc4C3)n(Cc3cc(F)c(F)c(F)c3)c2=O)c1 = 19
• Cc1cncc(-n2c(=O)c(Cc3ccc(F)c(F)c3)c(N3CC4(CCOC4)C3)n(CC#N)c2=O)c1 = 71
• Cc1cncc(-n2c(=O)c(Cc3cc(F)c(F)c(F)c3)c(N3Cc4ccccc4C3)n(CC#N)c2=O)c1 = 3

----------
# System: SARS-CoV-2 hCoV-19/Japan/TY/WK-521 strain
# Assay details: microbe, parasite or virus in culture
# Format: cell-based
# Test conditions: Severe acute respiratory syndrome coronavirus 2, HEK-293T, read-out: HEK 293T-AT EC50
pEC50: −log10 of the molar value.
Assay readout: pEC50

* Cc1cncc(-n2c(=O)c(Cc3ccc(F)c(F)c3)c(N3CC4(CCOC4)C3)n(CC#N)c2=O)c1 [Compound 11] | 7.38
* N#CCn1c(N2CC3(CCOC3)C2)c(-c2ccccc2)c(=O)n(-c2cncc(Cl)c2)c1=O [Compound 13] | 7.64
* N#CCn1c(N2CC(F)(F)C2)c(-c2ccc(F)c(Cl)c2)c(=O)n(-c2cncc(Cl)c2)c1=O [Compound 16] | 8.11
* Cc1cncc(-n2c(=O)c(Cc3cc(F)c(F)c(F)c3)c(N3CC4(C3)CC(F)(F)C4)n(CC#N)c2=O)c1 [Compound 8] | 7.84
* N#CCn1c(N2CC3(CCOC3)C2)c(-c2cccc(Cl)c2)c(=O)n(-c2cncc(Cl)c2)c1=O [Compound 14] | 8.80
* N#CCn1c(N2CC(O)(C(F)(F)F)C2)c(-c2ccc(F)c(Cl)c2)c(=O)n(-c2cncc(Cl)c2)c1=O [Compound 18] | 8.42
* Cc1cncc(-n2c(=O)[nH]c(N3Cc4ccccc4C3)c(Cc3cc(F)c(F)c(F)c3)c2=O)c1 [Compound 2] | 5.83
* Cc1cncc(-n2c(=O)nc(N3Cc4ccccc4C3)n(Cc3cc(F)c(F)c(F)c3)c2=O)c1 [Compound 1] | 6.58
* Cc1cncc(-n2c(=O)c(Cc3cc(F)c(F)c(F)c3)c(N3Cc4ccccc4C3)n(CC#N)c2=O)c1 [Compound 4] | 8.31
* N#CCn1c(N2CC3(CCOC3)C2)c(-c2ccc(F)c(Cl)c2)c(=O)n(-c2cncc(Cl)c2)c1=O [Compound 15] | 8.35
* Cc1cncc(-n2c(=O)c(Cc3cc(F)c(F)c(F)c3)c(N3Cc4ccccc4C3)n(C)c2=O)c1 [Compound 3] | 6.72
* Cc1cncc(-n2c(=O)c(Cc3ccccc3)c(N3CC4(CCOC4)C3)n(CC#N)c2=O)c1 [Compound 12] | 6.93
* Cc1cncc(-n2c(=O)c(Cc3cc(F)c(F)c(F)c3)c(N3CCCC3)n(CC#N)c2=O)c1 [Compound 5] | 7.69
* Cc1cncc(-n2c(=O)c(Cc3cc(F)c(F)c(F)c3)c(N3CC4(CCOCC4)C3)n(CC#N)c2=O)c1 [Compound 7] | 7.38

----------
# Study target: SARS-CoV-2 3CL^pro (Severe acute respiratory syndrome coronavirus 2)
# Assay details: biochemical
# Assay type: biochemical
Assay readout: IC50 (nM)

* Cc1cncc(-n2c(=O)c(Cc3cc(F)c(F)c(F)c3)c(N3CCCC3)n(CC#N)c2=O)c1 | 11.8
* Cc1cncc(-n2c(=O)c(Cc3cc(F)c(F)c(F)c3)c(N3CC4(CCOC4)C3)n(CC#N)c2=O)c1 | 8.37
* N#CCn1c(N2CC3(CCOC3)C2)c(Cc2cc(F)c(F)c(F)c2)c(=O)n(-c2cncc(Cl)c2)c1=O | 8.27
